test.method.notes: qHTS of pediatric cancer cell lines to identify multiple opportunities for drug repurposing: Primary screen for MG 63 (6-TG R) cells (AID 1347105); also: nearly all actives have a fitted effect of over 50% in size
condition.summary: MG 63 (6-TG R) viability, CellTiter-Glo, 48 h; series mostly up to 46 µM
Records with an inconclusive call do not appear. Activity calls are given as the source filed them. Calls follow the shape of the dose curve; as a rule, active = well fitted cell-killing curve with a large enough effect; inconclusive = small, poorly fitted or top-dose-only effect; inactive = no such curve, though single readings can be large or run the other way.
Valid outcomes are listed here; reply with one: yes for active, no for inactive

Answered examples (2):
>>> cat("C[C@H](O)C(=O)Nc1c(I)c(C(=O)NC(CO)CO)c(I)c(C(=O)NC(CO)CO)c1I")
"no"
>>> cat("OCc1ccccc1O")
"no"

Look up the recorded call for C[C@H]1C[C@H]2[C@@H]3CCC4=CC(=O)C=C[C@]4(C)[C@@]3(Cl)[C@@H](O)C[C@]2(C)[C@@]1(O)C(=O)CO in this test. no

Recorded test call requested for CC1(C)O[C@@H]2C[C@H]3[C@@H]4CCC5=CC(=O)CC[C@]5(C)[C@@]4(F)[C@@H](O)C[C@]3(C)[C@]2(C(=O)CCl)O1 no

###

assayed.system: Guanine nucleotide-binding protein G(i) subunit alpha-1 (Homo sapiens)
test.method.notes: qHTS Assay for Inhibitors of RGS12 GoLoco Motif Activity (Green Fluorophore) (AID 879);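 also: negative values mean loss of peptide binding seen as reduced polarization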
condition.summary: Galphai1/FITC-RGS12 GoLoco peptide, fluorescence polarization; series mostly up to 57.1 µM
The source made the active and inactive calls. Calls come from the whole dose curve; as a rule, active = well fitted curve in the direction sought with a large enough effect; inconclusive = small, poorly fitted or top-dose-only effect, or another doubt; inactive = no such curve, though single readings can be large or run the other way.
metric: outcome

>>> result("Oc1cc(O)c2c(c1)O[C@H](c1ccc(O)c(O)c1)[C@H](O)C2")
"inactive"
>>> result("CCCn1c(=O)[nH]c(=O)c2[nH]cnc21")
"inactive"
>>> result("CN1CCC[C@@H]1c1cccnc1")
"inactive"

###

test.method.notes: Cellular Toxicity (caspase-3) SHSY5Y (AID 657);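 also: cells exposed to compound for 16 hours at 37 °C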
condition.summary: SH-SY5Y caspase-3 activation; series mostly up to 91.7 µM
Calls of active or inactive are those of the source. Calls come from the whole dose curve; as a rule, active = well fitted activation curve with a large enough effect; inconclusive = small, poorly fitted or top-dose-only effect; inactive = flat fitted curve, though single readings scatter.
Assign a class; possible classes are true = active, false = inactive

>>> cat("O=C(O)CCCCC(=O)O")
"false"

GET /call?item= C=CCc1ccc(O)c(OC)c1 returns the recorded outcome of this test. false

Called result for CCCCCCc1ccc(O)cc1O false

For Oc1c(I)cc(Cl)c2cccnc12 , which call appears in the assay record? false

Per the records of this test, what outcome belongs to NC(=NCCCCCCN=C(N)/N=C(\N)Nc1ccc(Cl)cc1)/N=C(\N)Nc1ccc(Cl)cc1 ? false

Fill in: this test's call for Oc1ccc(Cl)cc1Sc1cc(Cl)ccc1O is ___ false

###

test.method.notes: qHTS of Nrf2 Activators: LOPAC Validation (AID 624149)
condition.summary: Nrf2/ARE reporter cell assay; series mostly up to 46.1 µM
Experimental: Many diseases have some form of oxidative stress injury and ties to inflammation, causing a host of problems for the patient. The antioxidant response element (ARE) plays an important role in alleviating the harmful effects of oxidative stress. […] 5 uL of 1000 cells/well of AREc32_Fluc cells are seeded into 1536-well plate in OPTI-MEM medium with 5% FBS. […] After the addition of 2.5 uL of Steady-Glo. the plates are kept at RT for 30 min, before they are read on the ViewLux
Activity calls are given as the source filed them. Calls come from the whole dose curve; as a rule, active = well fitted curve in the direction sought with a large enough effect; inconclusive = small, poorly fitted or top-dose-only effect, or effect the other way, or another doubt; inactive = no such curve, though single readings can be large or run the other way.
metric: outcome

Example compounds with recorded outcome:
>>> result("CCCC1O[C@@H]2C[C@H]3[C@@H]4CCC5=CC(=O)C=C[C@]5(C)[C@H]4[C@@H](O)C[C@]3(C)[C@]2(C(=O)CO)O1 (some centres undefined)")
"inactive"
>>> result("CC(CCc1ccccc1)NCC(O)c1ccc(O)c(C(N)=O)c1 (centres undefined)")
"inactive"
>>> result("CC(C)C[C@H]1C(=O)N2CCC[C@H]2[C@]2(O)O[C@](NC(=O)[C@@H]3C=C4c5cccc6[nH]c(Br)c(c56)C[C@H]4N(C)C3)(C(C)C)C(=O)N12")
"inactive"
>>> result("N[C@H](CO)C(=O)O")
"inactive"
>>> result("N[C@@H](Cc1cnc[nH]1)C(=O)O")
"inactive"

The compound identified as CC[C@H](C)C(=O)O[C@H]1CCC=C2C=C[C@H](C)[C@H](CC[C@@H]3C[C@@H](O)CC(=O)O3)[C@H]21 registered its outcome at inactive

// outcome value for O=C(O)c1cc2cc(Cc3cccnc3)ccc2o1 : inactive

Measured outcome of COc1cc(NS(C)(=O)=O)ccc1Nc1c2ccccc2nc2ccccc12 : inactive

Input C[C@]12CC[C@@H]3c4ccc(O)cc4CC[C@H]3[C@@H]1CC[C@@H]2O . Output outcome: inactive
